- target of assay: T1, human serum albumin (human, UniProt P02768 25-609)
- T1 construct: also called HSA
- T1 sequence (P02768 25-609 limits assumed): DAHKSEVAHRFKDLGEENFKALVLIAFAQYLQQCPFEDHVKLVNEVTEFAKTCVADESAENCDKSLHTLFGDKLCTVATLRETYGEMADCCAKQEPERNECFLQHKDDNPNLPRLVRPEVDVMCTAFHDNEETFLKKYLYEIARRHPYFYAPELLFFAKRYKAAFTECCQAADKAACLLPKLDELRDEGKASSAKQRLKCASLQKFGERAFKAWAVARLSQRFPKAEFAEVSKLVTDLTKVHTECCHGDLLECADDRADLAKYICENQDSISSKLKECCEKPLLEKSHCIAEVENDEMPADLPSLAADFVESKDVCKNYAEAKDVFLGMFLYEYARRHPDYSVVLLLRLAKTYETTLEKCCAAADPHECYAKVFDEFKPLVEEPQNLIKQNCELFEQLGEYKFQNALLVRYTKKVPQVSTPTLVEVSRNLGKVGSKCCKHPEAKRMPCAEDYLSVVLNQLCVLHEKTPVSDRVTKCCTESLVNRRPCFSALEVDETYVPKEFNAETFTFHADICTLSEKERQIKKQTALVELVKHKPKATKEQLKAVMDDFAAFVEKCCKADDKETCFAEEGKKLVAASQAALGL
- test summary: ELISA

{"binder": "AB130 (antibody, human IgG1, V domains shown, Tested as purified recombinant whole human IgG1 (Expi293F); also called 06-AB-130; anti-whole cell mAb) VH: QLQLQESGGGLVQPGGSLRLSCSASQFILSNYWVHWVRQVPGEGLVWVSRINEDGSVTSYADSVKGRFTISRDNAKNTLYLQMNSLRVDDTAVYYCVRDLCWERDDWGQGTLVSVSS VL: VIWMTQSPLSLPVTPGEAASISCRSSQSLLHRNGRTFFAWYLQKPGQSPQILIYLGSNRAFGVPDRFSGSGSGTDFTLKISRVEAEDVGIYYCMQGLQTPYTFGQGTKLEIK", "binding result": "no binding"}
{"binder": "AB122 (antibody, human IgG1, V domains shown, Tested as purified recombinant whole human IgG1 (Expi293F); also called 06-AB-122; anti-Hyr1 mAb) VH: EVQLVQSGGGLAQPGRSLRLSCAASGFGFDDFAMHWVRQPPGKGLEWVSGLTWNGGSIDYAGSVRGRFTISRDNAKNSLFLQMNSLRAEDTALYYCAKGLSGGTMAPFDIWGQGTMVSVSS VL: QAGLTQPPSVSVAPGQTATIPCGGNNIGSKHVHWYQQKPGQAPVAVVYDDSDRPSGVPERFSGSNSGNTATLTISSVEAGDEADYYCQVWDRSSDHFWLFGGGTRLTVL", "binding result": "no binding"}
{"binder": "AB126 (antibody, human IgG1, V domains shown, Tested as purified recombinant whole human IgG1 (Expi293F); also called 06-AB-126; anti-whole cell mAb) VH: EVQLVESGGGLAQPGGSLRLSCEASGFHLAGNAMAWVRQAPGKGLEWVAAIGGSDDRTDYADSVKGRFTISRDKSKNTLSLQMNSLRVEDTAVYYCAKDIWRWAFDYWGQGTLVSVSS VL: DIVMTQSPATLSLSPGERATLSCWASQYINTYVNWYQHKPGQAPRLLIYDASKRATGIPARFSGSGSGTDFTLTISSLEPEDFAVYYCQQGSNWPLTFGQGTRLEIK", "binding result": "no binding"}
